Attribution: PubChem BioAssay (NCI)

tested on: MDA-MB-231 breast; assay: NCI-60 one-dose screen, 48 h; conditions: 10 µM unless noted
The panel holds about 83,000 compounds, 20% with a hit somewhere; the sample as a whole holds those more often. Calls of active or inactive are those of the source. The calls were made as follows: active = growth percent below 10; inactive = the rest.
Valid outcomes are listed here; reply with one: label 1 for active, label 0 for inactive

Assay outcome for COc1cnc2c(c1)C(=O)c1c-2n(CCCN2CCN(CCO)CC2)c(=O)c2cc([N+](=O)[O-])ccc12 : what was it?
label 1

Assay outcome for C[C@]12CC[C@@H]3c4ccc(O)cc4CC[C@H]3[C@@H]1C[C@H](O)[C@@H]2O : what was it?
label 0

Assay outcome for O=C(NC(Cc1cn(Cc2ccccc2)cn1)C(=O)O)OCC1c2ccccc2-c2ccccc21 (configuration not stated) : what was it?
label 0

Assay outcome for Cc1ccc(/C=C(\C#N)c2cc3ccccc3n2C)cc1 : what was it?
label 0

Assay outcome for C/C(=N/NC(N)=S)C(=O)O : what was it?
label 0

Assay outcome for NCCNc1nc(-c2ccccc2)nc2nc(-c3ccccc3)oc12 : what was it?
label 0

Assay outcome for Fc1ccc(Nc2nnc(-c3ccc(Cl)cc3)o2)cc1 : what was it?
label 0

Assay outcome for C[C@@H](C(=O)O)c1ccc2c3cc(Cl)ccc3n(Cc3cc(=O)oc4ccc(Cl)cc34)c2c1 : what was it?
label 0

Assay outcome for CCN1CCN(C(=O)[C@]23CCC(C)(C)C[C@@H]2C2=CC[C@@H]4[C@@]5(C)C/C(=C/c6ccncc6)C(=O)C(C)(C)[C@@H]5CC[C@@]4(C)[C@]2(C)CC3)CC1 : what was it?
label 1

Assay outcome for NC(Cc1ccc(O)cc1)C(=O)N/N=C/c1ccccc1O (configuration not stated) : what was it?
label 0

Assay outcome for CCN(CC)CCCCCNc1cc(OC(=O)c2ccccc2)cc2cccnc12 : what was it?
label 0

Assay outcome for Cc1nc([P+](c2ccccc2)(c2ccccc2)c2ccccc2)c(Sc2sc(-c3ccccc3)nc2[P+](c2ccccc2)(c2ccccc2)c2ccccc2)o1 : what was it?
label 0

Assay outcome for COc1ccc(-c2cc(-c3cccs3)n(N=O)c(=O)c2C#N)cc1 : what was it?
label 0

Assay outcome for c1ccc2c(-c3nc(-c4c[nH]c5ncccc45)cs3)c[nH]c2c1 : what was it?
label 0

###

tested on: SR leukemia; test: NCI-60 one-dose screen, 48 h (100 = growth as untreated, 0 = no growth, -100 = all killed); details: 10 µM unless noted
The panel holds about 83,000 compounds, 20% with a hit somewhere; the sample as a whole holds those more often.
RESULT_TYPE: growth (%)
Supply the numeric figure in %, leaving out any unit text.

Examples from the recorded data:
| SUBSTANCE_SMILES | growth [%] |
| --- | --- |
| CCOc1ccc(NC(=O)c2ccoc2COc2ccccc2)cc1 | 113 |
| COc1cc(/C=C/c2cc(/C=C/c3ccc(O)c(OC)c3)n(-c3ccccc3)c(=O)n2)ccc1O | 30.7 |
| C=C(C)[C@@H]1CC[C@]2(C(=O)NNC(=O)c3cccnc3)CC[C@]3(C)[C@H](CC[C@@H]4[C@@]5(C)CCCNC(C)(C)[C@@H]5CC[C@]43C)[C@@H]12 | 18.9 |

What reported growth corresponds to Cc1cc(N2CCCCC2)nc(N(CCCNc2ccnc3cc(Cl)ccc23)Cc2ccco2)n1 on SR leukemia?
-20.6

What reported growth corresponds to COc1cc2[nH]c(C(=O)c3cc(OC)c(OC)c(OC)c3)c(N)c2cc1C#CCO on SR leukemia?
0.173

What reported growth corresponds to CC(C)=CCC/C(C)=C/CC/C(C)=C/CC/C(C)=C/CSC[C@H](NC(=O)CCCCCN1CCN(C)CC1)C(=O)NC1CCCCC1 on SR leukemia?
2.5

What reported growth corresponds to C[C@]12CC[C@@H]3c4ccc(O)cc4CC[C@H]3[C@@H]1C[C@H](O)[C@@H]2O on SR leukemia?
99.2

What reported growth corresponds to C=C(C)[C@@H]1CC[C@]2(C(=O)N3CCCNCC3)CC[C@]3(C)[C@H](CC[C@@H]4[C@@]5(C)CCC(=O)C(C)(C)[C@@H]5CC[C@]43C)[C@@H]12 on SR leukemia?
8.04
